We begin with a simple list: items and their reported IC50.
biological target: EZH2 (rPRC2) (Homo sapiens); test: EZH2 assay: rPRC2, biotinylated oligonucleosomes, 3H SAM methyl transfer (FlashPlate scintillation); assay type: biochemical; conditions: EZH2 IC50, wild-type EZH2 (rPRC2), biotinylated oligonucleosome substrate
Sequence (Q15910 whole entry): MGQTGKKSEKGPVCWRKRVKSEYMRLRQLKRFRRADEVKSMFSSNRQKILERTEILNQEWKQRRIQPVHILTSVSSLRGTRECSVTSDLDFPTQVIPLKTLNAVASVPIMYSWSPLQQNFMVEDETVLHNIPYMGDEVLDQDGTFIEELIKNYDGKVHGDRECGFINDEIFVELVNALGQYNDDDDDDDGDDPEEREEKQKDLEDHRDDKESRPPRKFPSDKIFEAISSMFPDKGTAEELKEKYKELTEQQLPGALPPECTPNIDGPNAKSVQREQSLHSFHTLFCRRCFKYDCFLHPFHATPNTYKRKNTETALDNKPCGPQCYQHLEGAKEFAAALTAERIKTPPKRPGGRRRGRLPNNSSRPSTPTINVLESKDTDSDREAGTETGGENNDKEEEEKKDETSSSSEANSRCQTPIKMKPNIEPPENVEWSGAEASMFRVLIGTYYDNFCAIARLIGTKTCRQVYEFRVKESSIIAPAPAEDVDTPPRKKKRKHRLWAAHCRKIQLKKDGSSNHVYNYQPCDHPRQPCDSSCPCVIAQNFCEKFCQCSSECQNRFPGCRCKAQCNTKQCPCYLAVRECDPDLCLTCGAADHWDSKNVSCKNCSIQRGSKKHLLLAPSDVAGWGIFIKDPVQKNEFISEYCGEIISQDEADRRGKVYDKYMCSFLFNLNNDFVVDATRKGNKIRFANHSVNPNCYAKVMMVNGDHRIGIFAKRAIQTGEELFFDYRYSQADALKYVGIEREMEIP
Sequence (O75530 whole entry partner): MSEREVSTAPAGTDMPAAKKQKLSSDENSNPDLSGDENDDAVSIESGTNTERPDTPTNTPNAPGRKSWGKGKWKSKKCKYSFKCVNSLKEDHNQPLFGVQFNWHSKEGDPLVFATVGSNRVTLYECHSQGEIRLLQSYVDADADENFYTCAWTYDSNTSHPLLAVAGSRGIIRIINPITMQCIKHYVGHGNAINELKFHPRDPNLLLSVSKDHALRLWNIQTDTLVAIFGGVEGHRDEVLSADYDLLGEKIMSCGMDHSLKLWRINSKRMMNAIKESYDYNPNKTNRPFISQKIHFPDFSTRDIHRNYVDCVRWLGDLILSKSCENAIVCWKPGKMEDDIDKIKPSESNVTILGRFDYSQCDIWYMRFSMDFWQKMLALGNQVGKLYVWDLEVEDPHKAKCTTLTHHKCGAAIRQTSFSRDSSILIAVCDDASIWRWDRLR
Sequence (Q15022 whole entry partner): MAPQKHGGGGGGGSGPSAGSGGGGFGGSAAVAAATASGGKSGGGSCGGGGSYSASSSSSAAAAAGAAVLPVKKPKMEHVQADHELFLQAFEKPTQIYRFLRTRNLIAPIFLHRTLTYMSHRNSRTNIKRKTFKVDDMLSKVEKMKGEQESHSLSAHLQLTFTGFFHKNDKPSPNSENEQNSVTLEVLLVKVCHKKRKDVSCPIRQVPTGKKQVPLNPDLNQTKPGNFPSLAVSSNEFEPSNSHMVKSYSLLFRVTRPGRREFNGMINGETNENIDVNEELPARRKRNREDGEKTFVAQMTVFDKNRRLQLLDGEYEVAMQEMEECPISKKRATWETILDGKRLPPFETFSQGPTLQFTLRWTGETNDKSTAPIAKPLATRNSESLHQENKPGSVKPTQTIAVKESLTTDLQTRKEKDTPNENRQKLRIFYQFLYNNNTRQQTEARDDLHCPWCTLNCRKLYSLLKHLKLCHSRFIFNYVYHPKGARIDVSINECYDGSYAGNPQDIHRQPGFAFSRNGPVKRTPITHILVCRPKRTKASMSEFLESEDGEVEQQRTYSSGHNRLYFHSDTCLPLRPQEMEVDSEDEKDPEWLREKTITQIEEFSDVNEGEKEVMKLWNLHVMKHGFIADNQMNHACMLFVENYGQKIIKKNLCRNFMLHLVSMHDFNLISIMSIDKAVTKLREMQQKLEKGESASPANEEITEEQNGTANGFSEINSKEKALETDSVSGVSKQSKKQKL
PARAMETER: IC50

- COc1cc(C)[nH]c(=O)c1CNC(=O)c1c(C)n(C(C)c2ccccc2)c2cnccc12 (single isomer, unassigned) [Compound 258]: < 100 nM
- COc1cc(C)[nH]c(=O)c1CNC(=O)c1c(C)n(C(C)c2ccn(C)c(=O)c2)c2ncccc12 (single isomer, unassigned) [Compound 269]: 100 to 1000 nM
- Cc1cc(C)c(CNC(=O)c2c(C)n(C(C)CCO)c3ncccc23)c(=O)[nH]1 (racemic): 100 to 1000 nM
- COc1cc(C)[nH]c(=O)c1CNC(=O)c1c(C)n(C(C)c2ccccc2)c2cnccc12 (racemic) [Compound 243]: < 100 nM
- Cc1cc(C)c(CNC(=O)c2c(C)n([C@H](C)c3ccccc3)c3nc(C)ncc23)c(O)n1: < 100 nM
- CCC(OC)C(C)n1c(C)c(C(=O)NCc2c(OC)cc(C)[nH]c2=O)c2cccnc21 (stereo not shown): < 100 nM
- Cc1cc(C)c(CNC(=O)c2c(C)n(C(C)C(C)(C)O)c3ncccc23)c(=O)[nH]1 (stereo not shown): 1000 to 10000 nM
- Cc1cc(C)c(COC(=O)c2c(C)n(C3CCc4ccccc43)c3ccccc23)c(=O)[nH]1 (single isomer, unassigned): < 100 nM
- Cc1cc(C)c(CNC(=O)c2c(C)n(C(C)c3ccccc3C#N)c3ccccc23)c(=O)[nH]1 (racemic): 100 to 1000 nM
- Cc1cc(C)c(COC(=O)c2c(C)n(C3CCOC3)c3ncccc23)c(=O)[nH]1 (racemic): 100 to 1000 nM
- COc1cc(C)[nH]c(=O)c1CNC(=O)c1c(C)n(C(C)C2CCN(C(C)C)CC2)c2ccccc12 (single isomer, unassigned): < 100 nM
- COc1cc(C)[nH]c(=O)c1CNC(=O)c1c(C)n(C(C)C2CCS(=O)(=O)CC2)c2ccccc12 (single isomer, unassigned): < 100 nM
- COc1cc(C)[nH]c(=O)c1CNC(=O)c1c(C)n([C@H](C)[C@H](OC)C2CC2)c2ncccc12 (single isomer, unassigned) [Compound 292]: < 100 nM
